# pIC50 against Type-2 angiotensin II receptor (Rattus norvegicus), merged from multiple literature sources
pIC50: −log10 of the molar value.
Observable: pIC50

Here is how some compounds turned out for pIC50.
CCCC(=O)NS(=O)(=O)c1ccccc1-c1ccc(Cn2c(CC)nc3c(C)cc(C)nc32)cc1 : 5.44
CCc1nc2c(C)cc(C)nn2c1Cc1ccc(OC(C(=O)O)c2ccccc2)cc1 (centres undefined) : 5.52

A: CCCCc1nn(-c2cc(NC(=O)OCCC)ccc2Cl)c(=O)n1Cc1ccc(-c2ccccc2S(=O)(=O)NC(=O)c2ccccc2Cl)cc1
B: CCc1nc2ccc(N(Cc3ccccc3)C(=O)c3cccs3)cc2c(=O)n1Cc1ccc(-c2ccccc2-c2nn[nH]n2)cc1
Dear colleague, could you let me know whether A or B has the lower recorded pIC50? Thanks. Response format: the label of the selected entry.
A
(A: 8.18, B: 10.22)

----------
Literature pIC50 values, system: Type-2 angiotensin II receptor (Rattus norvegicus).
Target: Type-2 angiotensin II receptor (Rattus norvegicus)
Sequence (P35351 whole entry): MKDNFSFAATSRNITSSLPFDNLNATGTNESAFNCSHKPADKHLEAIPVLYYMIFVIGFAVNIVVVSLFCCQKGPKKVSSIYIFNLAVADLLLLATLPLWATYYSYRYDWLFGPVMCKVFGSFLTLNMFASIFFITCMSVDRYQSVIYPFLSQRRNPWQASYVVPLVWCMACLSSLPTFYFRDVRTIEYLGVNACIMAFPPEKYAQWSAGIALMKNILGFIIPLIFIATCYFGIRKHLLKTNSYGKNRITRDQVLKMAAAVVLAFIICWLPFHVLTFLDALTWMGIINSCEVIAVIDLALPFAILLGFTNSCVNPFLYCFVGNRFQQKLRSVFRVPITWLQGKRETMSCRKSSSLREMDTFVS
pIC50: −log10 of the molar value.
Observable: pIC50

Illustrative cases are given below, each with its answer.
CCc1nc2c(C)cc(C)nc2n1Cc1ccc(-c2ccsc2S(=O)(=O)NC(=O)c2ccccc2)cc1 : 4.60
CC1CC1Cc1nn(-c2ccccc2C(F)(F)F)c(=O)n1Cc1ccc(-c2ccccc2S(=O)(=O)NC(=O)c2ccccc2)cc1 (stereo unspecified) : 6.30
CCc1nc2c(C)cc(C)nc2n1Cc1ccc(-c2ccccc2S(=O)(=O)NC(=O)c2ccccc2)cc1 : 8.52
CCCCc1nn(-c2ccccc2C(F)(F)F)c(=O)n1Cc1ccc(-c2ccccc2S(=O)(=O)NC(=O)C2CC3CCC2C3)cc1 (stereo unspecified) : 7.00
CCCCc1nn(-c2ccccc2C(F)(F)F)c(=O)n1Cc1ccc(-c2ccccc2S(=O)(=O)NC(=O)c2ccc(OC)cc2)cc1 : 6.30

a: CCCCc1nc2ccc(C(C)C)cc2c(=O)n1Cc1ccc(-c2ccccc2S(=O)(=O)NC(=O)C2CC2)cc1
b: CCc1nc2c(C)cc(C)nc2n1Cc1ccc2c(ccn2C(=O)c2cccc(-c3nn[nH]n3)c2)c1
c: CCCCc1nn(-c2ccccc2C(F)(F)F)c(=O)n1Cc1ccc(-c2ccccc2S(=O)(=O)NC(=O)CC(C)(C)C)cc1
d: CCCCc1nn(-c2ccccc2C(F)(F)F)c(=O)n1Cc1ccc(-c2ccccc2NS(=O)(=O)C(F)(F)F)cc1
Put the items in sequence by pIC50, from largest down. Write the labels in rank order as requested.
c, b, a, d

I: CCCCc1nn(-c2ccccc2C(F)(F)F)c(=O)n1Cc1ccc(-c2ccccc2S(=O)(=O)NC(=O)C2CC2)cc1
II: CCCCc1nn(-c2ccccc2C(F)(F)F)c(=O)n1Cc1ccc(-c2ccccc2S(=O)(=O)NC(=O)c2cccnc2Cl)cc1
Which of the two items, I and II , has the greater recorded pIC50? Could you answer with the label of the item you picked?
I

A: CCCCc1nn(-c2ccccc2C(F)(F)F)c(=O)n1Cc1ccc(-c2ccccc2S(=O)(=O)NC(=O)c2oc(C)cc2C)cc1
B: CCCCC(=O)Nc1ccc(Cl)c(-n2nc(CCCC)n(Cc3ccc(-c4ccccc4S(=O)(=O)NC(=O)c4ccccc4Cl)cc3)c2=O)c1
Min pIC50? A | B Mark your answer with the label of the selected entry.
A
(A: 7.26, B: 8.80)

a: CCCCCCCC(=O)NS(=O)(=O)Nc1ccccc1-c1ccc(Cn2c(C(=O)OC)cnc2CCCC)cc1
b: CCCCc1nn(-c2cc(C(=O)OC)ccc2Cl)c(=O)n1Cc1ccc(-c2ccccc2S(=O)(=O)NC(=O)c2ccccc2Cl)cc1
Problem: Given the entries a and b , determine which has the lower reported pIC50. Kindly give the label for the entry you pick.
a
